Reference source for all entries: patent US20220048967A1

study_system: human GLP-1 receptor (GLP-1R) (human, UniProt P43220 24-463)
method_notes: cell-based or functional assay
Output: class label from hGLP1R cAMP Rel EC50. Mapping: c1: < 200 pM; c2: ≥ 200 pM and < 400 pM; c3: ≥ 400 pM

binder: XXEGTFTSDYSIXLDKKAQXEFIEYLIAGGPSSGAPPPS (D-Tyr1; Aib2; αMeL13; K17 conjugated to (2-[2-(2-Amino-ethoxy)-ethoxy]-acetyl)-(γ-Glu)-CO-(CH2)18-CO2H; Aib20; C-terminal amide) [Example 378]
assigned_category: c1
--
binder: XXEGTFTSDYSIXLDXKAQXAFVXYLIAGGPSSGAPPPS (D-Tyr1; Aib2; αMeL13; Orn16; K17 conjugated to (2-[2-(2-Amino-ethoxy)-ethoxy]-acetyl)2-(γ-Glu)-CO-(CH2)18-CO2H; Aib20; D-Glu24; C-terminal amide) [Example 362]
assigned_category: c2
--
binder: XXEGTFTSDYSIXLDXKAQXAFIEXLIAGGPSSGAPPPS (D-Tyr1; Aib2; αMeL13; Orn16; K17 conjugated to (2-[2-(2-Amino-ethoxy)-ethoxy]-acetyl)2-(γ-Glu)-CO-(CH2)18-CO2H; Aib20; αMeY25; C-terminal amide) [Example 366]
assigned_category: c2
--
binder: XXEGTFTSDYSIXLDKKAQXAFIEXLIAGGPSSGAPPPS (D-Tyr1; Aib2; αMeL13; K17 conjugated to (2-[2-(2-Amino-ethoxy)-ethoxy]-acetyl)-(γ-Glu)-CO-(CH2)18-CO2H; Aib20; αMeY25; C-terminal amide) [Example 373]
assigned_category: c3

Consider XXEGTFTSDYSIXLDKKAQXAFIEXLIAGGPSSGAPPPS (D-Tyr1; Aib2; αMeL13; K17 conjugated to (2-[2-(2-Amino-ethoxy)-ethoxy]-acetyl)2-(γ-Glu)-CO-(CH2)18-CO2H; Aib20; αMeY25; C-terminal amide) [Example 365] . To which hGLP1R cAMP Rel EC50 class does it belong?
c1

Which bin, given its hGLP1R cAMP Rel EC50, does XXEGTFTSDYSIXLDXKAQXDFIEYLIAGGPSSGAPPPS (D-Tyr1; Aib2; αMeL13; Orn16; K17 conjugated to (2-[2-(2-Amino-ethoxy)-ethoxy]-acetyl)2-(γ-Glu)-CO-(CH2)18-CO2H; Aib20; C-terminal amide) [Example 369] occupy?
c1

In plain terms, what class is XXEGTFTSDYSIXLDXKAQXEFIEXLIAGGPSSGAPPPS (D-Tyr1; Aib2; αMeL13; Orn16; K17 conjugated to (2-[2-(2-Amino-ethoxy)-ethoxy]-acetyl)2-(γ-Glu)-CO-(CH2)16-CO2H; Aib20; αMeY25; C-terminal amide) [Example 375] ?
c1

For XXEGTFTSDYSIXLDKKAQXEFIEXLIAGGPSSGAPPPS (D-Tyr1; Aib2; αMeL13; K17 conjugated to (2-[2-(2-Amino-ethoxy)-ethoxy]-acetyl)2-(γ-Glu)-CO-(CH2)16-CO2H; Aib20; αMeY25; C-terminal amide) [Example 374] , which hGLP1R cAMP Rel EC50 bin applies?
c1

Dear colleague, I would appreciate it if you could identify the bin for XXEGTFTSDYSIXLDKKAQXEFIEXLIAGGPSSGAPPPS (D-Tyr1; Aib2; αMeL13; K17 conjugated to (2-[2-(2-Amino-ethoxy)-ethoxy]-acetyl)-(γ-Glu)-CO-(CH2)18-CO2H; Aib20; αMeY25; C-terminal amide) [Example 372] and reply at your convenience.
c2

Exercise: read the entry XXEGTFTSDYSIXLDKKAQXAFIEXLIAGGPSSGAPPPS (D-Tyr1; Aib2; αMeL13; K17 conjugated to (2-[2-(2-Amino-ethoxy)-ethoxy]-acetyl)2-(γ-Glu)-CO-(CH2)16-CO2H; Aib20; αMeY25; C-terminal amide) [Example 376] and state which class it falls under.
c1

For YXEGTFTSDYSIXLDKKAQXEFIEXLIAGGPSSGAPPPS (Aib2; αMeL13; K17 conjugated to (2-[2-(2-Amino-ethoxy)-ethoxy]-acetyl)2-(γ-Glu)-CO-(CH2)18-CO2H; Aib20; αMeY25; C-terminal amide) [Example 367] , which hGLP1R cAMP Rel EC50 bin applies?
c1

Which category fits this record: XXEGTFTSDYSIXLDXKAQXEFIEXLIEGGPSSGAPPPS (D-Tyr1; Aib2; αMeL13; Orn16; K17 conjugated to (2-[2-(2-Amino-ethoxy)-ethoxy]-acetyl)2-(γ-Glu)-CO-(CH2)18-CO2H; Aib20; αMeY25; C-terminal amide) [Example 380]
c2

Band of XXEGTFTSDYSIXLDKKAQXAFVXYLIAGGPSSGAPPPS (D-Tyr1; Aib2; αMeL13; K17 conjugated to (2-[2-(2-Amino-ethoxy)-ethoxy]-acetyl)2-(γ-Glu)-CO-(CH2)18-CO2H; Aib20; D-Glu24; C-terminal amide) [Example 361] ?
c3
